# Run description: Chemical stability assessed as half life of degradation
# Type: physicochemical
Reported endpoint: half-life (h)

O=C(COc1ccccc1/N=N/c1ccccc1OCC(=O)N[C@@H](Cc1ccccc1)C(=O)N[C@@H](Cc1ccccc1)C(=O)OCc1ccccc1)N[C@@H](Cc1ccccc1)C(=O)N[C@@H](Cc1ccccc1)C(=O)OCc1ccccc1 :: 28.9

P. CC(C)[C@H](NC(=O)COc1ccccc1/N=N/c1ccccc1OCC(=O)N[C@H](C(=O)OCc1ccccc1)C(C)C)C(=O)OCc1ccccc1
Q. O=C(COc1ccccc1/N=N/c1ccccc1OCC(=O)NCC(=O)OCc1ccccc1)NCC(=O)OCc1ccccc1
stdin: Could you please tell me which of these two has the higher half-life: P or Q ? // respond with label for picked entry
stdout: Q
